- target: CIB1 and αIIb interaction (CIB1-GST : F-αIIb peptide) (Homo sapiens)
- Construct: made in house; host or cells: BL-21 plus RIL cells (E. coli)
- procedure-details: FP assay, 1536-well qHTS format (primary and confirmatory screen)
- Format: binding
- measurement-conditions: confirmatory screen; read-out: IC50 [μM] (confirmatory screen)
readout: IC50 (µM)
Give bare numbers, in µM.

Below, 8 compounds whose answers are already recorded.
compound	IC50 / µM
C=C1[C@@H](C)[C@H]2[C@H](Cc3ccccc3)NC(=O)[C@]23OC(=O)/C=C/C(=O)CCC[C@@H](C)C/C=C/[C@H]3[C@@H]1O	10
Nc1nc2c(s1)C(c1ccc(F)cc1F)CC(=O)N2 (stereo not drawn)	89.1
CN(C)CCCn1cc(C2=C(c3c[nH]c4ccccc34)C(=O)NC2=O)c2ccccc21	44.7
O=C(O)C(F)(F)F.O=S(=O)(Nc1nccs1)c1ccc(NCc2cc(F)cc(Cl)c2O)cc1	31.6
Cc1ccc(C(=O)c2no[n+]([O-])c2C(=O)c2ccc(C)cc2)cc1.O=C(O)C(F)(F)F	5.6
O=C(O)C(F)(F)F.O=C1Nc2ccccc2/C1=N/NC(=S)Nc1ccccc1	3.2
Cl.N=C(NCCCCCCNC(=N)NC(=N)Nc1ccc(Cl)cc1)NC(=N)Nc1ccc(Cl)cc1	35.5
CCN1CCN(c2ccc(Nc3ccc(-c4ccc(C(N)=O)cc4)n4ncnc34)cc2)CC1.O=C(O)C(F)(F)F	22.4

Could you report IC50 for every entry in the following list?
1. Cc1cnc(-c2ccccc2C(C)C)nc1NCc1ccc(-c2ccc(F)nc2)cc1.O=C(O)C(F)(F)F
2. CC1=NN(c2ccc(C)c(C)c2)C(=O)/C1=N/Nc1cccc(-c2cccc(C(=O)O)c2)c1O
3. Cc1cc2c(C(C)C)c(O)c(O)c(C=O)c2c(O)c1-c1c(C)cc2c(C(C)C)c(O)c(O)c(C=O)c2c1O

Result block:
1: 112; 2: 22.4; 3: 2.8

Could you report IC50 for every entry in the following list?
1. CCC(=O)NC(c1cccs1)c1cc(Br)c2cccnc2c1O (stereo not drawn)
2. N#Cc1ccc(Nc2nc(-c3ccc(O)cc3O)cs2)cc1C(F)(F)F
3. COc1ccc(CC(=O)Nc2ccc(S(=O)(=O)Nc3cc(C)on3)cc2)cc1C.O=C(O)C(F)(F)F
4. O=C(O)C(F)(F)F.O=C(O)c1ccc(O)c2ncc(-c3n[nH]nc3-c3ccccc3)cc12
5. Cl.O=S(=O)(Nc1nccs1)c1ccc(NCc2cc(Cl)ccc2O)cc1
6. NC(=O)c1ccc(Cc2c(-c3cccc(-c4ccccc4)c3)nn(-c3nc(C(=O)O)cs3)c2O)cc1.O=C(O)C(F)(F)F
7. Cc1cccc(C(=O)c2no[n+]([O-])c2C(=O)c2cccc(C)c2)c1.O=C(O)C(F)(F)F

Result block:
25.1
50.1
39.8
39.8
50.1
70.8
31.6

Could you report IC50 for every entry in the following list?
1. COc1cccc2nc(-c3cccs3)nc(NN3C(=O)C=C(C)C3=O)c12
2. Cl.Nc1cc(C(F)(F)F)ccc1S
3. CN(C(=O)CN(CCO)CC(=O)N(C)C(C)(C)Cc1ccccc1)C(C)(C)Cc1ccccc1
4. Cl.O=[N+]([O-])c1cccc(CNc2ccc(S(=O)(=O)Nc3nccs3)cc2)c1O

Result block:
[8.9, 22.4, 79.4, 22.4]

Could you report IC50 for every entry in the following list?
1. COC[C@H]1OC(=O)c2coc3c2[C@@]1(C)C1=C(C3=O)[C@@H]2CCC(=O)[C@@]2(C)C[C@H]1OC(C)=O
2. Cc1cc(SCc2sc(-c3ccc(Cl)c(Cl)c3)nc2C)ccc1OCC(=O)O.O=C(O)C(F)(F)F

Result block:
1: 28.2; 2: 35.5

====

- target: GST-CIB1 : F-scrambled peptide (Homo sapiens, UniProt Q99828)
- Construct: made in house; host or cells: BL-21 plus RIL cells (E. coli)
- Sequence (Q99828 whole entry): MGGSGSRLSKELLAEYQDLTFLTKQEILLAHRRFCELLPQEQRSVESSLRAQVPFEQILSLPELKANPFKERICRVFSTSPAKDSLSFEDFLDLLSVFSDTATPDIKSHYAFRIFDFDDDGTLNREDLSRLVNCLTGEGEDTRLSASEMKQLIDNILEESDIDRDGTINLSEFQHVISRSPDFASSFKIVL
- procedure-details: FP scrambled-peptide counter screen, 1536-well format
- Format: binding
- measurement-conditions: counterscreen
Decision: Efficacy (%) (counterscreen) >= -30% yields True, all other cases yield False.

Query block: Is Efficacy (%) (counterscreen) at least -30%? Consider O=C(O)CSc1cc(NS(=O)(=O)c2ccc(Br)cc2)c2ccccc2c1O
Result block: False

Query block: Is Efficacy (%) (counterscreen) at least -30%? Consider O=c1c(O)c(-c2ccc(O)c(O)c2)oc2cc(O)cc(O)c12
Result block: False

Query block: Is Efficacy (%) (counterscreen) at least -30%? Consider CC1=C(O)C(=O)C=C2C1=CC=C1[C@@]2(C)CC[C@@]2(C)[C@@H]3C[C@](C)(C(=O)O)CC[C@]3(C)CC[C@]12C
Result block: False

Query block: Is Efficacy (%) (counterscreen) at least -30%? Consider C=C(CC)C(=O)c1ccc(OCC(=O)O)c(Cl)c1Cl
Result block: True

Query block: Is Efficacy (%) (counterscreen) at least -30%? Consider Cc1cc2c(C(C)C)c(O)c(O)c(C=O)c2c(O)c1-c1c(C)cc2c(C(C)C)c(O)c(O)c(C=O)c2c1O
Result block: False

Query block: Is Efficacy (%) (counterscreen) at least -30%? Consider CCN1CCN(c2ccc(Nc3ccc(-c4ccc(C(N)=O)cc4)n4ncnc34)cc2)CC1.O=C(O)C(F)(F)F
Result block: False

Query block: Is Efficacy (%) (counterscreen) at least -30%? Consider CN(C(=O)CN(CCO)CC(=O)N(C)C(C)(C)Cc1ccccc1)C(C)(C)Cc1ccccc1
Result block: False

Query block: Is Efficacy (%) (counterscreen) at least -30%? Consider O=C(O)C(F)(F)F.O=C(c1ccc(F)cc1)c1no[n+]([O-])c1C(=O)c1ccc(F)cc1
Result block: False

====

Kindly supply the reported Curve Class (confirmatory screen) values for the records listed here.
- target: CIB1 and αIIb interaction (CIB1-GST : F-αIIb peptide) (Homo sapiens, UniProt Q99828)
- Construct: made in house; host or cells: BL-21 plus RIL cells (E. coli)
- procedure-details: FP assay, 1536-well qHTS format (primary and confirmatory screen)
- Type: binding
- measurement-conditions: confirmatory screen, qHTS curve class; negative sign = inhibitory curve
Answers are plain numbers.

Below, 3 molecules whose answers are already recorded.
molecule	target	Curve Class (confirmatory screen)
Cl.O=[N+]([O-])c1cccc(CNc2ccc(S(=O)(=O)Nc3nccs3)cc2)c1O [NCGC00273554-01]	CIB1 and αIIb interaction (CIB1-GST : F-αIIb peptide) (Homo sapiens, UniProt Q99828)	-2.4
CC(C)c1ccccc1Cc1cc(C(=O)Nc2ccc(S(=O)(=O)c3ccccc3C(C)(C)C)cc2)c(O)c(O)c1O [NCGC00263208-01]	CIB1 and αIIb interaction (CIB1-GST : F-αIIb peptide) (Homo sapiens, UniProt Q99828)	-1.2
CCN1CCN(c2cccc(Nc3nn4c(=O)c5ccccc5nc4s3)c2)CC1.Cl [NCGC00187806-01]	CIB1 and αIIb interaction (CIB1-GST : F-αIIb peptide) (Homo sapiens, UniProt Q99828)	-2.4

Let us examine a further case.
Query block: Any idea what Curve Class (confirmatory screen) was measured for Cc1cc(C)nc(NC(=S)N2CCN(c3ccc4nsnc4c3)CC2)c1.O=C(O)C(F)(F)F [NCGC00244160-01] ?
Result block: -2.1

====

- procedure-details: In vitro ADME: PAMPA permeability
Labelling field: enter Met if recorded Papp is less than 10 ×10⁻⁶ cm/s. Enter Not met if it equals or exceeds that cut-off.

O=C(c1ccc(C(F)(F)F)cc1)c1no[n+]([O-])c1C(=O)c1ccc(C(F)(F)F)cc1 Not met
O=C(O)C(F)(F)F.O=C(c1cccs1)c1no[n+]([O-])c1C(=O)c1cccs1 Not met

Query block: Given the entry O=C(c1ccccc1)c1no[n+]([O-])c1C(=O)c1ccccc1 , would its reported Papp be below 10 ×10⁻⁶ cm/s?
Result block: Met

Query block: Given the entry O=C(O)C(F)(F)F.O=C(c1ccc(F)cc1)c1no[n+]([O-])c1C(=O)c1ccc(F)cc1 , would its reported Papp be below 10 ×10⁻⁶ cm/s?
Result block: Met

Query block: Given the entry O=C(c1cccs1)c1no[n+]([O-])c1CO , would its reported Papp be below 10 ×10⁻⁶ cm/s?
Result block: Not met

Query block: Given the entry COc1ccccc1C(=O)c1no[n+]([O-])c1C(=O)c1ccccc1OC.O=C(O)C(F)(F)F , would its reported Papp be below 10 ×10⁻⁶ cm/s?
Result block: Not met

Query block: Given the entry O=C(c1cccc(OCc2ccccc2)c1)c1no[n+]([O-])c1C(=O)c1cccc(OCc2ccccc2)c1 , would its reported Papp be below 10 ×10⁻⁶ cm/s?
Result block: Met

Query block: Given the entry O=C(c1cccs1)c1no[n+]([O-])c1C(=O)c1cccs1 , would its reported Papp be below 10 ×10⁻⁶ cm/s?
Result block: Not met

Query block: Given the entry O=C(c1ccc(-c2ccccc2)cc1)c1no[n+]([O-])c1C(=O)c1ccc(-c2ccccc2)cc1 , would its reported Papp be below 10 ×10⁻⁶ cm/s?
Result block: Met

Query block: Given the entry COc1ccc(C(=O)c2no[n+]([O-])c2C(=O)c2ccc(OC)cc2)cc1.O=C(O)C(F)(F)F , would its reported Papp be below 10 ×10⁻⁶ cm/s?
Result block: Not met

Query block: Given the entry Cc1ccccc1C(=O)c1no[n+]([O-])c1C(=O)c1ccccc1C.O=C(O)C(F)(F)F , would its reported Papp be below 10 ×10⁻⁶ cm/s?
Result block: Met

Hello, the source for this data is paper PMC11249646, in case you need it.
